Values were extracted from the OligoGym collection.

Biological target: CHUK; also: test concentration or dose not given here
Conditions: ASO
These antisense oligonucleotides have a phosphorothioate backbone; sugars and methylation of C are not fully specified.
Overview of recorded remaining target (mRNA or protein) (fraction of control) for various sequences
READOUT NAME: remaining target (mRNA or protein) (fraction of control)

> print(dat)
         sequence.text  readout.value
 1  GCTGTCACTGTAGGAGTG           0.75
 2  GGTAACAGAAAAGAAATT            ≥ 1
 3  AGGATGTGTACTATCTTC           0.79
 4  CATAGTGGATGGCCTTTT           0.66
 5  AAGTCTCCCCATCTTGAG            ≥ 1
 6  GACATAATCTGATCCTCC            ≥ 1
 7  CAAGAGAGCGGGCAGAAC            ≥ 1
 8  ATACAGTTTTACTTTTAT            ≥ 1
 9  CTGAGATCAAAGTGTTCT            ≥ 1
10  TAGAAGAGGCACATCATG           0.76
11  AAATATACACTTTGGATC            ≥ 1
12  CTGAGGGTCCCAATTCAA           0.88
13  TCTCGATGTATAATTTTG            ≥ 1
14  ACAGACAGACGTTCCCGA           0.85
15  AGAACACATTGAGAGGCT            0.8
16  TATTTTATGTATTATCTT            ≥ 1
17  TGTTCCAGAGATTCCATC            ≥ 1
18  TCAATACGAGACTGTAGT            ≥ 1
19  TTCAGCCCACACTTTACG           0.58
20  CCCTGCATGAACATGACA           0.47
21  TGAGCACACGGTCCTGAC           0.79
22  TCTCCTCCAGAACAGTAT            ≥ 1
23  CTTAGCTCTAGGCGACAA           0.56
24  CTTCTGCTTACAGCCCAA           0.56
25  TGTGTAAGGCTTATTCTC           0.91
26  CTACTAAACCGAACTTCT            ≥ 1
27  CTCTCCAAGTCAAGCTGA           0.49
28  TAATCTGGATTTCATGGC            ≥ 1
29  AGTATCTGGCTTTCTTTA            ≥ 1
30  ATCTTGGCTGCTTCAAAG            0.6
31  TGCCCAGCCGCTCCCGCA           0.85
32  ACATTGCTGCCCTTTGTC           0.54
33  CTTAATTGCTATTTTGAG            ≥ 1
34  ATTGGCATGGTTCAACTT           0.69
35  TTAAACTACAAAGGCTAT            ≥ 1
36  AATTTACACAATCAGATA            ≥ 1
37  AGCAATACATTCAAATAC            ≥ 1
38  TTCTTGAGAACCAGTATT            ≥ 1
39  TTCCCGATGCTGGTACAG           0.63
40  TTACTGAGGGCCACTTCC           0.48
